Where do these numbers come from? They come from PubChem BioAssay (NCI).

Kindly supply the reported TGI values for the records listed here.
- Test system: HCC-2998 colon
- protocolText: NCI tumour cell line growth inhibition, 48 h

A selection of reference data follows.
compound: CC(N)C(Cc1ccc(Cl)cc1)c1ccc(Cl)cc1 (stereo not drawn)
TGI: 4.11 µM
//
compound: NC(Cc1ccc(OCc2ccccc2)cn1)C(=O)O (stereo not drawn)
TGI: > 100 µM
//
compound: OC(c1ccc(F)cc1)C(F)(F)c1nc2ccccc2o1 (stereo not drawn)
TGI: > 100 µM
//
compound: CC(=O)Nc1c(S(=O)(=O)c2ccccc2)c(C)c(C)n1CCN(C)C
TGI: > 100 µM
//
compound: CCOC(=O)c1c(N)n(-c2ccccc2)c(=O)n(-c2ccccc2)c1=O
TGI: > 100 µM
//
compound: CC(=O)c1ccc2c(c1)c1cc(C(C)=O)ccc1n2CCNC(C)C
TGI: 4.39 µM
//
compound: CC[C@H](C)[C@H]1NC(=O)[C@@H](NC(=O)[C@@H](CC(C)C)N(C)C(=O)C2CCCN2C(=O)[C@H](C)O)[C@@H](C)OC(=O)[C@H](Cc2ccc(OC)cc2)N(C)C(=O)[C@@H]2CCCN2C(=O)[C@H](CCCCNC(=O)OCc2ccccc2)NC(=O)[C@H](C)C(=O)[C@H](C(C)C)OC(=O)C[C@@H]1O (stereo partly drawn)
TGI: 9.79 µM
//
compound: C#C[C@]1(O)CC[C@H]2[C@@H]3CCC4=C/C(=N/OCCN(C)C)CC[C@]4(C)[C@H]3CC[C@@]21C
TGI: > 100 µM

Batch: TGI for all items listed.
1. COC(=O)CCC(NC(=S)N/N=C(\C)c1cnc2ccccc2n1)C(=O)OC (stereo not drawn)
2. COc1ccc(/C=C/C(=O)c2cc(OC)c(OC)c(OC)c2)cc1OCC(=O)Nc1nc2ccc(OC(F)(F)F)cc2s1
3. O=C1NC(Cc2ccc(O)cc2)C(=O)N2CCCC12 (stereo not drawn)
4. CC(=O)Nc1ccc(NCC(=O)Nn2cnc3ccc(S(=O)(=O)Nc4ccc(NC(C)=O)cc4)cc3c2=O)cc1
5. CC1=CC(=O)CC(C)(C)C1/C=C/C(C)=C/C=C/C(C)=C/C=C/C=C(C)/C=C/C=C(C)/C=C/C1C(C)=CC(=O)CC1(C)C (stereo not drawn)
6. O=c1[nH]c(=O)n(COCc2ccccc2)c2ccsc12
7. O=C(Nc1ccc2[nH]nc(-c3ccncc3)c2c1)[C@@H]1CCN(CC(=O)N2CCN(c3ccc(-c4ncccn4)cc3)CC2)C1

["> 100 µM", "25.1 µM", "> 100 µM", "> 100 µM", "> 100 µM", "> 100 µM", "> 100 µM"]

* * *

- Tested on: SF-268 CNS
- protocolText: NCI tumour cell line growth inhibition, 48 h
parameter: GI50

molecule: CCN(Cc1ccc(C)cc1)c1ccc(CO)c(Cl)c1
experimentalSystem: SF-268 CNS
GI50: 15 µM

molecule: CCC(C)[C@H]1O[C@]2(CC[C@@H]1C)C[C@@H]1C[C@@H](C/C=C(\C)[C@@H](OC3C[C@H](OC)C(O[C@H]4C[C@H](OC)[C@@H](O)[C@H](C)O4)[C@H](C)O3)[C@@H](C)/C=C/C=C3\CO[C@@H]4[C@H](O)C(C)=C[C@@H](C(=O)O1)[C@]34O)O2 (stereo partly drawn)
experimentalSystem: SF-268 CNS
GI50: 4.14 µM

For the molecule COc1ccc(/C=C/C(=O)c2cc(OC)c(OC)c(OC)c2)cc1OCC(=O)Nc1nc2ccc(OC(F)(F)F)cc2s1 , what GI50 is on record?
1.2 µM

* * *

- System: SW-620 colon
- protocolText: NCI tumour cell line growth inhibition, 48 h
parameter: TGI

Worked cases, answers included:
compound: COC(=O)C(Cc1cc(OC)c(OC)c(OC)c1)C(=O)OC
TGI: > 320 µM
--
compound: O=C1NC(Cc2ccc(O)cc2)C(=O)N2CCCC12 (stereo not given)
TGI: > 100 µM
--
compound: COc1ccc2nc3c(C(=O)NCCN(C)C)cccc3cc2c1
TGI: 5.1 µM
--
compound: CC(=O)OCC1OC(n2cc(F)c(=O)[nH]c2=O)C(NC(=O)N(CCCl)N=O)C(OC(C)=O)C1OC(C)=O (stereo not given)
TGI: > 100 µM
--
compound: CC(=O)c1ccc2c(c1)c1cc(C(C)=O)ccc1n2CCNC(C)C
TGI: 2.34 µM
--
compound: O=C(N/C(=C\c1ccc(Cl)cc1)c1nc2ccccc2[nH]1)c1ccccc1
TGI: 64 µM
--
compound: N#CC12Cc3cc4c(cc3-c3cccc(c31)CCN2C(=O)c1ccccc1)OCO4 (stereo not given)
TGI: > 100 µM
--
compound: CCN1C(=S)N(c2ccccc2)C2NC(=S)N(/N=C/C=C/c3ccccc3OC)C21 (stereo not given)
TGI: > 100 µM
--
compound: CCOC(=O)c1c(N)n(-c2ccccc2)c(=O)n(-c2ccccc2)c1=O
TGI: > 100 µM

What measured TGI goes with CCN(CC)c1ccc(/C=N/NC(=O)CSc2nc3ccccc3c(=O)n2CCc2ccc(S(N)(=O)=O)cc2)c(O)c1 ?
> 100 µM

* * *

Consider the following compounds; for each one, report its TGI.
- Tested on: SNB-78 CNS
- protocolText: NCI tumour cell line growth inhibition, 48 h

Reference set, count: 3
compound: COc1ccc(C(=O)C2=NON3OC23C(=O)c2ccc(OC)cc2)cc1 (stereo unspecified)
valueReported: 42.3 µM
//
compound: Nc1ncnc2c1ncn2[C@]1(CO)C=C(CO)C(O)C1O (stereo partly specified)
valueReported: > 100 µM
//
compound: COc1ccc2nc3c(C(=O)NCCN(C)C)cccc3cc2c1
valueReported: 18.3 µM

Could you report TGI for every entry in the following list?
1. O=c1ccc2nc3cc(Br)ccc3sc-2c1
2. N#Cc1c(-c2ccc(Cl)c(Cl)c2)c(-c2ccc(Cl)c(Cl)c2)nn(CC(=O)O)c1=O
3. CN1C(=O)CCC1(O)C1C=CC=CC1 (stereo unspecified)
4. CC(=O)OCC1OC(n2cc(F)c(=O)[nH]c2=O)C(NC(=O)N(CCCl)N=O)C(OC(C)=O)C1OC(C)=O (stereo unspecified)
5. Cn1c(=O)[nH]c2nncnc2c1=O

> 100 µM
> 100 µM
> 100 µM
> 100 µM
> 625 µM

* * *

- Test system: DU-145 prostate
- protocolText: NCI tumour cell line growth inhibition, 48 h
parameter: TGI (µM)
Give bare numbers, in µM.

Look over these answered cases.
structureString: Cc1nc([P+](c2ccccc2)(c2ccccc2)c2ccccc2)c(Sc2sc(-c3ccccc3)nc2[P+](c2ccccc2)(c2ccccc2)c2ccccc2)o1
readoutUnit: µM
valueReported: 4.96

structureString: CCN1C/C(=C\c2cc(OC)c(OC)cc2OC)C(=O)/C(=C/c2cc(OC)c(OC)cc2OC)C1
readoutUnit: µM
valueReported: 4.12

structureString: COc1ccc(C2=N[C@@H](Cc3ccccc3)C(=O)Nc3ccsc32)cc1
readoutUnit: µM
valueReported: 21.9

For every item below, please supply its TGI.
1. CC(C)(CN1CCCCC1)C(=O)/C=C/c1ccc(/C=C/C(=O)C(C)(C)CN2CCCCC2)cc1
2. CCCCCCCCCCCCCCCCCc1cccc(OCOCCOC)c1C(=O)O
3. COC(=O)c1n[nH]c(C)c1N=NN(C)CCC#N

1. 5.05
2. 33.2
3. 51.6

* * *

- Tested on: SF-268 CNS
- protocolText: NCI tumour cell line growth inhibition, 48 h
parameter: GI50

Would you please look over these solved cases?
molecule: COc1cc(Nc2nc3cc(N)cc(N)c3nc2-c2ccccc2)cc(OC)c1OC
valueReported: 18.1 µM
--
molecule: COc1ccc(C2CC(c3cccc(Nc4ccnc5cc(Cl)ccc45)c3)=NN2C=O)cc1 (stereo not drawn)
valueReported: 1.37 µM
--
molecule: CCN(CCCN(C)C)Cc1cc(I)cc(C)c1O
valueReported: 18.7 µM
--
molecule: COc1ccc(C2=N[C@@H](Cc3ccccc3)C(=O)Nc3ccsc32)cc1
valueReported: 10.4 µM
--
molecule: O=C(Cc1ccc(/C=C/C(=O)c2ncc[nH]2)cc1)Nc1ccc(F)cc1
valueReported: 5.1 µM

Hi there! I need GI50 for each item below, if you can.
1. COC[C@@H](N=C1NC(=O)/C(=C/c2ccc3ncccc3c2)S1)c1ccccc1
2. O=C(CC(Cl)=C(Cl)Cl)Nc1ccccc1
3. Cc1cc(S(=O)(=O)Nc2nc3ccccc3o2)c(SCc2ccccc2)cc1Cl

1. 11.8 µM
2. > 100 µM
3. 18.9 µM

* * *

- Test system: COLO 205 colon
- protocolText: NCI tumour cell line growth inhibition, 48 h
parameter: TGI

Some solved cases for reference:
compound: O=C(N/C(=C\c1ccc(Cl)cc1)c1nc2ccccc2[nH]1)c1ccccc1
valueReported: 35.6 µM

compound: N#CC12Cc3cc4c(cc3-c3cccc(c31)CCN2C(=O)c1ccccc1)OCO4 (stereo not given)
valueReported: > 100 µM

compound: C=C=C(CC1CCCCC1=O)S(=O)(=O)c1ccccc1 (stereo not given)
valueReported: > 10 µM

compound: N#Cc1cccc2c1Nc1ccccc1S2
valueReported: > 100 µM

Proceeding to the next compound to report its TGI.
Item COC(=O)C(C(=O)C(=O)Nc1c(C)cccc1C)c1cnc2ccccc2n1 (stereo not given) with COLO 205 colon - TGI?
> 100 µM
